Taken from paper PMC7069248.

Target: H. sapiens C-term sucrase-isomaltase (Homo sapiens, UniProt P14410)
Sequence (P14410 1008-1827 limits assumed): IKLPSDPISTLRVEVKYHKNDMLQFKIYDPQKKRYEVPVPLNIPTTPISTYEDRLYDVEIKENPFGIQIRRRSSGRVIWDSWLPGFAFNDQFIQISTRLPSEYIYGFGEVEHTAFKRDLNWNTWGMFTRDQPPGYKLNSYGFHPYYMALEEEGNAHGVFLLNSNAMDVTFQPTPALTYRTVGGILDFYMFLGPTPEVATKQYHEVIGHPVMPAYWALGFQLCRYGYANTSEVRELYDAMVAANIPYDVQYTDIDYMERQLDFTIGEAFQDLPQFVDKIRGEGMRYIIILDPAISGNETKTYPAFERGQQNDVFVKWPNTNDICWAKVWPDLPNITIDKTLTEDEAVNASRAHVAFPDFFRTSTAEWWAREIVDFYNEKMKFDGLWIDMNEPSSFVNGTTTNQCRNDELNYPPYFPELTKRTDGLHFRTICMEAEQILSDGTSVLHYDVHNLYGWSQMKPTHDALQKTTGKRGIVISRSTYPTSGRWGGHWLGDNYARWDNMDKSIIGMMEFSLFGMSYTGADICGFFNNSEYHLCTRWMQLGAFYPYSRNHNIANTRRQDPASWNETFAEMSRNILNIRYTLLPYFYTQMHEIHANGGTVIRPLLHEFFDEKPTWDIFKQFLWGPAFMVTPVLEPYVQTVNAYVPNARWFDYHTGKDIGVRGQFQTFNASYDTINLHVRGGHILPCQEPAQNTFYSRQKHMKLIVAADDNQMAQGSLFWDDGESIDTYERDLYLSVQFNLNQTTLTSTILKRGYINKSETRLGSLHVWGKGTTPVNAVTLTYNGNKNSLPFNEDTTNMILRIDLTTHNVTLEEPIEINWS
recordedEndpoint: IC50

Kindly state the measured IC50 obtained for O=C(/C=C/c1ccc(O)c(O)c1)N[C@@H](Cc1ccc(O)cc1)C(=O)NCCCOc1c(-c2ccc(O)c(O)c2)oc2cc(O)cc(O)c2c1=O with H. sapiens C-term sucrase-isomaltase (Homo sapiens, UniProt P14410).
> 7 µM
